# pIC50 listing for each entry below
# assayTarget: Myc proto-oncogene protein (Homo sapiens)
# Sequence (P01106 whole entry): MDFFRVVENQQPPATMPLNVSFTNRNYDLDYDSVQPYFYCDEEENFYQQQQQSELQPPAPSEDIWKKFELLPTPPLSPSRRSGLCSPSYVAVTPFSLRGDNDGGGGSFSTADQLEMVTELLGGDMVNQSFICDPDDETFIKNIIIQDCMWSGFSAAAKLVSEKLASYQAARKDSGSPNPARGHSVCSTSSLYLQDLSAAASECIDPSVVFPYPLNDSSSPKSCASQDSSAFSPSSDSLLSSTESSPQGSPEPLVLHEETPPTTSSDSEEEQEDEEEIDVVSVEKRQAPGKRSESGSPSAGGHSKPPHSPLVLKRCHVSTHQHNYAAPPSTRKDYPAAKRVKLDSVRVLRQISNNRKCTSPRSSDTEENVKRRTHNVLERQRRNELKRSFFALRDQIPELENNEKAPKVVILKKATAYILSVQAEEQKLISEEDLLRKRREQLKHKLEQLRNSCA
# protocolSummary: Inhibition of human c-Myc assessed as reduction in c-Myc/Max/Ebox DNA complex formation using pre-formed complex of c-Myc and biotinylated DNA containing single Ebox-sequence followed by compound addition and further addition of his6-tagged c-Max and incubated for 2 hrs by AlphaScreen assay
pIC50: −log10 of the molar value.

Solved entries (count: 4):
chemicalStructure: COCCNCCC(=O)Nc1sc2c(c1-c1nc3ccc(-c4ccc(O)c(F)c4)cc3s1)CCNC2
assayTarget: Myc proto-oncogene protein (Homo sapiens)
pIC50: < 5.00
--
chemicalStructure: COCCNCCC(=O)Nc1sc2c(c1-c1nc3ccc(-c4ccc(C)nc4)cc3s1)CCNC2
assayTarget: Myc proto-oncogene protein (Homo sapiens)
pIC50: 6.00 to 6.52
--
chemicalStructure: CC(C)NCCC(=O)Nc1sc2c(c1-c1nc3cc(-c4ccc(O)cc4)ccc3s1)CCNC2
assayTarget: Myc proto-oncogene protein (Homo sapiens)
pIC50: > 6.52
--
chemicalStructure: COCCNCCC(=O)Nc1sc2c(c1-c1nc3cc(-c4cnc(OC)c(OC)c4)ccc3s1)CCNC2
assayTarget: Myc proto-oncogene protein (Homo sapiens)
pIC50: 5.00 to 6.00

Now, please, on to the next molecule.
Enquiry: Tell me the measured pIC50 of "COCCNCCC(=O)Nc1sc2c(c1-c1nc3cc(-c4cnn(Cc5ccccc5)c4)ccc3s1)CCNC2" , please.
Return: 5.00 to 6.00
